What Binding affinity was measured for each of the following?
Biological target: acetylcholine receptor (Homo sapiens, UniProt P02708)
Sequence (P02708 21-457): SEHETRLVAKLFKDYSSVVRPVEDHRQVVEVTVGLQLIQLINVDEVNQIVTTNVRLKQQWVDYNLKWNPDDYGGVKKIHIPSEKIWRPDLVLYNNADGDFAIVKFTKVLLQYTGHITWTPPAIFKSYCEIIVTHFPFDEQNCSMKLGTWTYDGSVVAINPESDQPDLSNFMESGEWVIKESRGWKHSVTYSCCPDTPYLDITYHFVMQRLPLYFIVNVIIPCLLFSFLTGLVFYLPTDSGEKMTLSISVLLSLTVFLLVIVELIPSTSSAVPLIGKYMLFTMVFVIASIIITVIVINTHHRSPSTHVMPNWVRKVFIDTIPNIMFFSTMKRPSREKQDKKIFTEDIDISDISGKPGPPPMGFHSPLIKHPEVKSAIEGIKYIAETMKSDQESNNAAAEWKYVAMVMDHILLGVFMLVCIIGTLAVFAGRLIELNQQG
Experiment: SPR binding affinity (RU) of optimized 5mer/6mer/7mer peptides, Examples 6-7
Conditions: SPR, Resonance Units; peptides tested at 10 μM; 6mer-2 Bottom sequence
Give bare numbers, in Ru.

Which Binding affinity is reported for this substance? 6mer-2-781 (KTMNRK)
28

Which Binding affinity is reported for this substance? 6mer-2-736 (KNNHKK)
29

Which Binding affinity is reported for this substance? 6mer-2-803 (RNKERK)
18

Please look at the following substance next.
Which Binding affinity is reported for this substance? 6mer-2-907 (RTMNRR)
25

----------
What Binding affinity was measured for each of the following?
Molecular target: acetylcholine receptor (Homo sapiens)
Assay: SPR binding affinity (RU) of optimized 5mer/6mer/7mer peptides, Examples 6-7
Settings: SPR, Resonance Units; peptides tested at 10 μM; 6mer-2 Top sequence (Table 12)
Numbers only, in Ru.

Examples with answers:
Which Binding affinity is reported for this substance? 6mer-2-369 (KVVRRR)
145

Which Binding affinity is reported for this substance? 6mer-2-370 (KSLLRR)
142

Which Binding affinity is reported for this substance? 6mer-2-346 (KRFSKK)
153

Which Binding affinity is reported for this substance? 6mer-2-385 (RGVCKR)
154

Which Binding affinity is reported for this substance? 6mer-2-204 (RRVQKR)
142

Batch: Binding affinity for all items listed.
1. 6mer-2-274 (KLRTKR)
2. 6mer-2-402 (KRYSRR)

148
145

Batch: Binding affinity for all items listed.
1. 6mer-2-335 (KWRSRR)
2. 6mer-2-282 (RQQYRK)
3. 6mer-2-264 (KSQLKR)
4. 6mer-2-231 (KGISKK)

1. 153
2. 151
3. 127
4. 144

Batch: Binding affinity for all items listed.
1. 6mer-2-399 (RWLTRR)
2. 6mer-2-246 (KWISKK)

1: 148; 2: 123

Batch: Binding affinity for all items listed.
1. 6mer-2-340 (RRLTRR)
2. 6mer-2-275 (KLITRR)

[122, 135]

Batch: Binding affinity for all items listed.
1. 6mer-2-329 (RVYTKR)
2. 6mer-2-393 (RGLQRK)
3. 6mer-2-392 (RQILKR)
4. 6mer-2-271 (RLFQKK)
5. 6mer-2-226 (RLLCKR)
6. 6mer-2-373 (KLIYRK)
7. 6mer-2-383 (KLVRRK)
8. 6mer-2-206 (KWQYKK)

[142, 145, 149, 131, 154, 139, 128, 148]

Batch: Binding affinity for all items listed.
1. 6mer-2-309 (KRRRRR)
2. 6mer-2-276 (RLVCRK)
3. 6mer-2-219 (RGVSKR)

[151, 153, 153]

----------
Target: acetylcholine receptor (Homo sapiens, UniProt P02708)
Experiment: SPR binding affinity (RU) of optimized 5mer/6mer/7mer peptides, Examples 6-7
Conditions: SPR, Resonance Units; peptides tested at 10 μM; 6mer-2 Bottom sequence
quantity: Binding affinity (Ru)
Numbers only, in Ru.

Examples with answers:
Which Binding affinity is reported for this substance? 6mer-2-752 (KINWRR)
29

Which Binding affinity is reported for this substance? 6mer-2-664 (KCCWKK)
11

Which Binding affinity is reported for this substance? 6mer-2-961 (KNTKKR)
21

Batch: Binding affinity for all items listed.
1. 6mer-2-652 (RTTMRK)
2. 6mer-2-675 (RMKWRK)
3. 6mer-2-813 (KKMDRR)

1: 16; 2: 14; 3: 29

Data origin: patent US20250011363A1
